The reported numbers originate from ChEMBL document CHEMBL1137070.

Overview of recorded IC80 for various compounds
- System: Cryptococcus neoformans
- ASSAY SUMMARY: In vitro antifungal activity against Cryptococcus neoformans ATCC 9011
- Format: functional

Some compounds with known IC80 results, for comparison:
                    structure_smiles_string  measured_endpoint    observed
0  C=C1/C=C(\C)[C@H](CC)OC(=O)[C@H](C)C(=O)[C@@](O)(CO)C/C(Cl)=C/[C@@H](C)C1               IC80  0.15 µg/mL
1        OC(Cn1cncn1)(Cn1cncn1)c1ccc(F)cc1F               IC80     8 µg/mL

Noted IC80 for C=C1/C=C(\C)[C@H](CC)OC(=O)[C@H](C)C(=O)[C@@](O)(CO)C/C(SC)=C/[C@@H](C)C1 , tested on Cryptococcus neoformans: 0.063 µg/mL

The recorded IC80 with Cryptococcus neoformans for C=C1/C=C(\C)[C@H](CC)OC(=O)[C@H](C)C(=O)[C@@](O)(CO)C/C(C)=C/[C@@H](C)C1 was 32 µg/mL

The compound C=C1/C=C(\C)[C@H](CC)OC(=O)[C@H](C)C(=O)[C@@](O)(CO)C/C(OC)=C/[C@@H](C)C1 , when measured on Cryptococcus neoformans, yielded IC80 of < 0.031 µg/mL

* * *

- Test system: Saccharomyces cerevisiae
- ASSAY SUMMARY: In vitro antifungal activity against Saccharomyces cerevisiae Y9; activity expressed as minimum inhibitory concentration
- Type: functional
The reader will find reported MIC values listed item by item below.

Example compounds with recorded MIC:
STRUCTURE SMILES STRING	MIC
C=C1/C=C(\C)[C@H](CC)OC(=O)[C@H](C)C(=O)[C@@](O)(CO)C/C(C)=C/[C@@H](C)C1	> 64 µg/mL
C=C1/C=C(\C)[C@H](CC)OC(=O)[C@@H](C)C(=O)[C@@](O)(CO)C/C(OC)=C/[C@@H](C)C1	> 64 µg/mL
C[C@@H]1[C@H](O)[C@@H](C)/C=C/C=C/C=C/C=C/C=C/C=C/C=C/[C@H](O[C@@H]2O[C@H](C)[C@@H](O)[C@H](N)[C@@H]2O)C[C@@H]2O[C@](O)(C[C@@H](O)C[C@@H](O)[C@H](O)CC[C@@H](O)C[C@@H](O)CC(=O)O[C@H]1C)C[C@H](O)[C@H]2C(=O)O	0.25 µg/mL

C=C1/C=C(\C)[C@H](CC)OC(=O)[C@H](C)C(=O)[C@@](O)(CO)C/C(SC)=C/[C@@H](C)C1 yielded MIC of 64 µg/mL

// MIC lookup, compound = C=C1/C=C(\C)[C@H](CC)OC(=O)[C@H](C)C(=O)[C@@](O)(CO)C/C(OC)=C/[C@@H](C)C1 , result: 1 µg/mL
